self-cleavage kobs at 640 uM GlcN6P values, listed per item
B1: glmS ribozyme (parent)
chain: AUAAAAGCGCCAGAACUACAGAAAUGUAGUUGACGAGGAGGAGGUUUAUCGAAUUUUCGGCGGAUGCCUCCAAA

# Variants of: B1
# TEST_DETAILS: self-cleavage kobs at 640 uM GlcN6P; higher = faster cleavage; RNA array
# TEST_CONDITIONS: with glucosamine-6-phosphate
This sample holds only a part of the variants without activity.
VALUE_TYPE: self-cleavage kobs at 640 uM GlcN6P

mutant_label="A12U U30A G38U" result_value="< 1e-05 s⁻¹"
mutant_label="C8U C10U" result_value="< 1e-05 s⁻¹"
mutant_label="A39G U46C U47G U65A" result_value="0.0001 s⁻¹"
mutant_label="G13C A15G U45A" result_value="4.01e-05 s⁻¹"
mutant_label="A12C A52U U57A" result_value="0.000131 s⁻¹"
mutant_label="G9A C16U G41A A48U" result_value="< 1e-05 s⁻¹"
mutant_label="A15G U45A A53G" result_value="0.0131 s⁻¹"
mutant_label="G38U A42G" result_value="< 1e-05 s⁻¹"
mutant_label="U30A C50G" result_value="0.00128 s⁻¹"
mutant_label="C8A U45C C67U" result_value="< 1e-05 s⁻¹"
mutant_label="U31C A33U A36U G38C C58U U65G G66C C71U" result_value="< 1e-05 s⁻¹"
mutant_label="G7A A36U" result_value="< 1e-05 s⁻¹"
mutant_label="G40A C61U" result_value="< 1e-05 s⁻¹"
mutant_label="A39C G40U" result_value="5.01e-05 s⁻¹"
mutant_label="G38U G41C G59C" result_value="< 1e-05 s⁻¹"
mutant_label="U55G C67G" result_value="0.000819 s⁻¹"
mutant_label="C16U G41C" result_value="0.000139 s⁻¹"
mutant_label="C16A G43C" result_value="< 1e-05 s⁻¹"
mutant_label="C10U A12C G40A" result_value="< 1e-05 s⁻¹"
mutant_label="U31G G41A U46G" result_value="7.29e-05 s⁻¹"
mutant_label="G35U A36G C61A" result_value="< 1e-05 s⁻¹"
mutant_label="U47C G62C" result_value="< 1e-05 s⁻¹"
mutant_label="A42U G51U" result_value="< 1e-05 s⁻¹"
mutant_label="C10G U47A" result_value="< 1e-05 s⁻¹"
mutant_label="G9A C70A" result_value="< 1e-05 s⁻¹"
mutant_label="G9C A12C G13U G44U C67A" result_value="< 1e-05 s⁻¹"
mutant_label="G32C U47G G59C" result_value="< 1e-05 s⁻¹"
mutant_label="C10A A36U G62A" result_value="< 1e-05 s⁻¹"
mutant_label="C11U A36C C61U" result_value="< 1e-05 s⁻¹"
mutant_label="C34U G43U A53G U55A A64U" result_value="< 1e-05 s⁻¹"
mutant_label="C10U U47C" result_value="< 1e-05 s⁻¹"
mutant_label="A15G U31G A39U" result_value="0.000575 s⁻¹"
mutant_label="G38A C61A G62C" result_value="< 1e-05 s⁻¹"
mutant_label="U45G C61A" result_value="< 1e-05 s⁻¹"
mutant_label="G40U U69C" result_value="6.56e-05 s⁻¹"
mutant_label="G29U G60U" result_value="< 1e-05 s⁻¹"
mutant_label="G32U U56C" result_value="2.54e-05 s⁻¹"
mutant_label="A36C C70A" result_value="6.93e-05 s⁻¹"
mutant_label="G40A U45G" result_value="0.000563 s⁻¹"
mutant_label="A6G A42G" result_value="0.000175 s⁻¹"
mutant_label="A15G A36U G41U C70U" result_value="< 1e-05 s⁻¹"
mutant_label="G38A A42G G62U" result_value="< 1e-05 s⁻¹"
mutant_label="A14C G43U U56A C68U" result_value="9.14e-05 s⁻¹"
mutant_label="A53G C71G" result_value="0.000377 s⁻¹"
mutant_label="A14U U30G G40A" result_value="0.000126 s⁻¹"
mutant_label="G7A G9C C16G" result_value="< 1e-05 s⁻¹"

src = the supplement of paper PMC7125110
